SYSTEM_UNDER_TEST: 18F-PiB binding sites, amyloid plaque and fibril in human brain slices (Homo sapiens)
Sequence (P05067 672-711 limits assumed): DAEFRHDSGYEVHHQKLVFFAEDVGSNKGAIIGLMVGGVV
TEST_DESCRIPTION: Human AD brain slice competition against 18F-PiB (IC50)
MEASUREMENT_SETUP: tracer 18F-PiB; human AD brain slices; blocker 0.01 to 10 uM
pIC50: −log10 of the molar value.
PARAMETER_MEASURED: pIC50

COc1ccc2c(n1)sc1nc(-c3ccc(F)nc3)cn12 [Compound W372] = 7.14
COc1ccc2c(n1)sc1nc(-c3ccc(F)c(O)c3)cn12 [Compound W389] = 6.89

A: COc1ccc2c(n1)sc1nc(-c3ccc(F)cc3)cn12 [Compound W332]
B: COc1ccc2c(n1)oc1nc(-c3ccc(F)cc3)cn12 [Compound W386]
Query: # compare pIC50 for A vs B ; return the one with the smaller value Respond with the label that goes with your answer.
Response: B
